Every entry's value here was drawn from paper PMC6680903.

# Measured on: T1, β2-Microglobulin (Homo sapiens, UniProt P61769)
# T1 construct: human β2-microglobulin; Amine-coupled to a CM5 chip (150 RU); also called antigen β2M; source: expressed and purified as previously described [27]
# Assay overview: SPR; Biacore T200; β2M immobilised on a CM5 chip to 150 RU; VHH samples after the modification procedure (NHS-Fluo:VHH 0, 1, 5 or 20; 2 h at 4 °C, ultrafiltration) in 2-fold serial dilution, 30 μL/min, HBS-EP+, 25 °C; 1:1 model with drift and RI2
# Experimental parameters: both partners purified
Property label: kon (M⁻¹ s⁻¹)
Give just the number in M⁻¹ s⁻¹; leave the unit off.

These recorded examples may help you get a feel for the data.
Binder	Units text	kon
NB-3 modified with 5 times of NHS-Fluo (VHH, as the VHH domain of Dm10; flexible (G4S)4 linker between the VHH domain and the His6 tag, written out from '(G4S)4'; A mixture of isomers with different numbers and places of fluorescein; also called NB-3-5; source: E. coli SHuffle T7, purified (HisTrap HP), modified with NHS-Fluo, ultrafiltration) VHH: QVQLVESGGGLVQPGGSLRLSCAASGFSLDYYAIGWFRQAPGKEREGVSCISSSDDSTYYAGSVKGRFKISRDNAKSTVYLQMNSLKPEDSAVYYCAALHSGNYYYTPSYICDAEMDYWGKGTLVTVSS	M⁻¹ s⁻¹	558
NB-2 modified with 5 times of NHS-Fluo (VHH, as the VHH domain of Dm6; flexible (G4S)4 linker between the VHH domain and the His6 tag, written out from '(G4S)4'; A mixture of isomers with different numbers and places of fluorescein; also called NB-2-5; source: E. coli SHuffle T7, purified (HisTrap HP), modified with NHS-Fluo, ultrafiltration) VHH: QVQLVESGGGLVQHGGSLRLSCAASGSAFSTYSMTWHRQAPGKGREWVAGVDRSNSDTNYADSVKGRFTIYRDNAQNTVYLRMNSLKPEDTAVYYCSAERLDGSVRREYWGQGTQVTVSS	M⁻¹ s⁻¹	591

For this binder ( NB-1 (VHH, VHH domain of NB-1; flexible (G4S)4 linker between the VHH domain and the His6 tag, written out from '(G4S)4'; VHH-(G4S)4-His6; Template of the homology model: PDB 4KDT (GMQE 0.99). 'Origin' = no treatment; '0' = negative control, all physical steps of the modification without NHS-Fluo; also called NB-1-Origin; NB-1-0; source: E. coli SHuffle T7, purified (HisTrap HP)) VHH: QVQLVESGGGLVQAGGSLRLSCAASGSTLDSYYIGWFRQAPGKEREGVSCISSSGNSIRYVDSVKDRFTISRDNGKNTAYLHINSLRPEDTAVYYCAASRRGRKPGLPCSLVRERYAYWGQGTQVTVSS ), measured kon is 48500

For this binder ( NB-1 modified with 5 times of NHS-Fluo (VHH, as the VHH domain of Dm2; flexible (G4S)4 linker between the VHH domain and the His6 tag, written out from '(G4S)4'; A mixture of isomers with different numbers and places of fluorescein; also called NB-1-5; source: E. coli SHuffle T7, purified (HisTrap HP), modified with NHS-Fluo, ultrafiltration) VHH: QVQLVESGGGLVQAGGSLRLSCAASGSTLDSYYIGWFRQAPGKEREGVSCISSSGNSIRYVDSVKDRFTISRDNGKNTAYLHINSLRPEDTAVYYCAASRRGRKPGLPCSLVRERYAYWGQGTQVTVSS ), measured kon is 41800
